STUDY TARGET: T1, Human CD3eg linker (human)
T1 construct: Single-chain construct; also called recombinant human CD3
T1 chain: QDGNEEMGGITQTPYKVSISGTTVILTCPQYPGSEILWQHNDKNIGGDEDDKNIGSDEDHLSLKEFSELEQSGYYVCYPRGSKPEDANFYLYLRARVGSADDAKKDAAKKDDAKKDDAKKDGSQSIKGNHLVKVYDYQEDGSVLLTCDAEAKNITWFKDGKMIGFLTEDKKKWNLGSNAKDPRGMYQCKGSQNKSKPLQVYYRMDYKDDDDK
METHOD DESCRIPTION: SPR; fold vs parent H183/L072
EXPERIMENTAL READOUT: fold change of affinity (fold)
Write the number in fold without appending the unit.

H183/L072 VL Q24A (antibody, name in Kabat numbering, V domains shown) VH: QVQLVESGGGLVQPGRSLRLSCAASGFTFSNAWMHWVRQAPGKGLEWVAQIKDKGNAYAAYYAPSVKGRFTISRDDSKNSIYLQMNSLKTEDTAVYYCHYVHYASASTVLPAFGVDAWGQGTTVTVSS VL: DIVMTQSPLSLPVTPGEPASISCAASQELVHMNRNTYLHWYQQKPGQAPRLLIYKVSNRFPGVPDRFSGSGSGTDFTLKISRVEAEDVGVYYCAQGTSVPFTFGQGTKLEIK :: 1.1

Ask | Identify fold change of affinity associated with the binder H183/L072 VL V27cI (antibody, name in Kabat numbering, V domains shown) VH: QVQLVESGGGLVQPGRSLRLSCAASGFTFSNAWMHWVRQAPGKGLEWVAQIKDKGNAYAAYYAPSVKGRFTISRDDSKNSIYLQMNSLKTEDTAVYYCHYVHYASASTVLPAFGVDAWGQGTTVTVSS VL: DIVMTQSPLSLPVTPGEPASISCQASQELIHMNRNTYLHWYQQKPGQAPRLLIYKVSNRFPGVPDRFSGSGSGTDFTLKISRVEAEDVGVYYCAQGTSVPFTFGQGTKLEIK
Reply | 1

Ask | Identify measured fold change of affinity corresponding to H183/L072 VL N30T (antibody, name in Kabat numbering, V domains shown) VH: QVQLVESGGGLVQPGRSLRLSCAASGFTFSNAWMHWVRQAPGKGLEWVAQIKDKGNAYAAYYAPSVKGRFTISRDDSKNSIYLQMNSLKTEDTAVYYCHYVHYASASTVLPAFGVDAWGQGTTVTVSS VL: DIVMTQSPLSLPVTPGEPASISCQASQELVHMNRTTYLHWYQQKPGQAPRLLIYKVSNRFPGVPDRFSGSGSGTDFTLKISRVEAEDVGVYYCAQGTSVPFTFGQGTKLEIK
Reply | 0.1
